Target or system Histamine H3 receptor (Cavia porcellus); metric Ki; compiled from varied reports.
Measured Metric: Ki (nM)

Solved cases (5 shown):
# Compound, Numeric Value
rows = [
    ("O=C(CN1CCC(Cc2cnc[nH]2)CC1)Nc1ccc(Cl)cc1", 90),
    ("CS(=O)(=O)NC(c1ccccn1)C1CCN(C(=O)C2CCN(Cc3ccnc(N)c3)CC2)CC1 (stereo not drawn)", 0.35),
    ("O=C(CCN1CCC(Cc2cnc[nH]2)CC1)Nc1ccc(Cl)cc1", 0.4),
    ("Clc1ccc2c(c1)CCc1cccnc1C2N1CCN(CCCCc2c[nH]cn2)CC1 (stereo not drawn)", 68.5),
    ("Clc1ccc2c(c1)CCc1cccnc1C2N1CCN(CCCCCCc2c[nH]cn2)CC1 (stereo not drawn)", 41),
]

P: Clc1ccc(C(c2ccccn2)N2CCN(CCCc3c[nH]cn3)CC2)cc1 (stereo not drawn)
Q: Clc1ccc2c(c1)CCc1cccnc1C2C1CCN(CCCCCCc2c[nH]cn2)CC1 (stereo not drawn)
Compare P and Q by numeric Ki and name the larger one. Answer format: the label of the selected item.
P
